Read-out: ABC Transporter (ABCC2), ABCC2 (gene 1244)
Experiment: LTEA_HepaRG_ABCC2: Life Technologies and Expression Analysis (LTEA) Assay for ABC Transporter (ABCC2) using HepaRG (AID 2283464)
Settings: mRNA level, 48 h; actives raise or lower the signal
Active and inactive are the calls of the source. How the source made its calls: active means hit-call score of the fitted dose curve at least 0.9, where 1 is the maximum; inactive means score below 0.9.
readout.name: AC50

[
  {
    "compound": "C=C(C)CN(CC)c1c([N+](=O)[O-])cc(C(F)(F)F)cc1[N+](=O)[O-]",
    "readout.name": "AC50",
    "observed.value": "inactive"
  },
  {
    "compound": "CC(C)Nc1nc(Cl)nc(NC(C)C)n1",
    "readout.name": "AC50",
    "observed.value": "9.77 µM (active)"
  },
  {
    "compound": "COc1cc(OC)nc(NC(=O)NS(=O)(=O)c2ncccc2OCC(F)(F)F)n1",
    "readout.name": "AC50",
    "observed.value": "inactive"
  },
  {
    "compound": "CCCCOCN(C(=O)CCl)c1c(CC)cccc1CC",
    "readout.name": "AC50",
    "observed.value": "inactive"
  },
  {
    "compound": "CS(=O)(=O)c1cc(C(F)(F)F)ccc1C(=O)c1cnoc1C1CC1",
    "readout.name": "AC50",
    "observed.value": "inactive"
  },
  {
    "compound": "CCCCC(C#N)(Cn1cncn1)c1ccc(Cl)cc1 (stereo not given)",
    "readout.name": "AC50",
    "observed.value": "inactive"
  },
  {
    "compound": "COP(=S)(OC)Oc1ccc([N+](=O)[O-])c(C)c1",
    "readout.name": "AC50",
    "observed.value": "inactive"
  },
  {
    "compound": "COP(=O)(OC)O/C(C)=C/C(=O)N(C)C",
    "readout.name": "AC50",
    "observed.value": "inactive"
  },
  {
    "compound": "CCN(CC)c1nc(C)cc(OP(=S)(OC)OC)n1",
    "readout.name": "AC50",
    "observed.value": "19.9 µM (active)"
  },
  {
    "compound": "O=C1C2CC=CCC2C(=O)N1SC(Cl)(Cl)Cl (stereo not given)",
    "readout.name": "AC50",
    "observed.value": "inactive"
  },
  {
    "compound": "CC1(C)CCC(=Cc2ccc(Cl)cc2)C1(O)Cn1cncn1 (stereo not given)",
    "readout.name": "AC50",
    "observed.value": "inactive"
  },
  {
    "compound": "CCOc1nc(C(Cl)(Cl)Cl)ns1",
    "readout.name": "AC50",
    "observed.value": "inactive"
  },
  {
    "compound": "CC(C)NC(=O)N1CC(=O)N(c2cc(Cl)cc(Cl)c2)C1=O",
    "readout.name": "AC50",
    "observed.value": "inactive"
  },
  {
    "compound": "CC1(C)C(C=C(Cl)Cl)C1C(=O)OC(C#N)c1cccc(Oc2ccccc2)c1 (stereo not given)",
    "readout.name": "AC50",
    "observed.value": "inactive"
  },
  {
    "compound": "N#CN=C1SCCN1Cc1ccc(Cl)nc1",
    "readout.name": "AC50",
    "observed.value": "inactive"
  },
  {
    "compound": "COC(=O)NC(=S)Nc1ccccc1NC(=S)NC(=O)OC",
    "readout.name": "AC50",
    "observed.value": "35.4 µM (active)"
  },
  {
    "compound": "CCOC(=O)C(C)OC(=O)c1cc(Oc2ccc(C(F)(F)F)cc2Cl)ccc1[N+](=O)[O-] (stereo not given)",
    "readout.name": "AC50",
    "observed.value": "21.9 µM (active)"
  },
  {
    "compound": "O=c1n(Cl)c(=O)n(Cl)c(=O)n1Cl",
    "readout.name": "AC50",
    "observed.value": "inactive"
  },
  {
    "compound": "CCSC(=O)N1CCCCCC1",
    "readout.name": "AC50",
    "observed.value": "inactive"
  },
  {
    "compound": "CCCCC(O)(Cn1cncn1)c1ccc(Cl)cc1Cl (stereo not given)",
    "readout.name": "AC50",
    "observed.value": "79.9 µM (active)"
  },
  {
    "compound": "Clc1nc(Cl)nc(Nc2ccccc2Cl)n1",
    "readout.name": "AC50",
    "observed.value": "inactive"
  },
  {
    "compound": "Cn1c(-c2ccccc2)cc(-c2ccccc2)[n+]1C",
    "readout.name": "AC50",
    "observed.value": "62.6 µM (active)"
  },
  {
    "compound": "COC(=O)NS(=O)(=O)c1ccc(N)cc1",
    "readout.name": "AC50",
    "observed.value": "inactive"
  },
  {
    "compound": "O=C(Nc1ccccc1-c1ccc(Cl)cc1)c1cccnc1Cl",
    "readout.name": "AC50",
    "observed.value": "inactive"
  },
  {
    "compound": "COC(=O)N(C(=O)N1CO[C@@]2(C(=O)OC)Cc3cc(Cl)ccc3C2=N1)c1ccc(OC(F)(F)F)cc1",
    "readout.name": "AC50",
    "observed.value": "inactive"
  }
]

Where these numbers come from: PubChem BioAssay (EPA / NIEHS)
